# assay_text: UV-Vis absorption spectroscopy
# Format: physicochemical
# cond: acetonitrile/2% DMSO
parameter_measured: ε (at absorption λmax) (M⁻¹ cm⁻¹)

a. O=C(O)c1ccc(-c2nn(-c3ccc(C(=O)O)cc3)c3ccc([N+](=O)[O-])cc23)cc1
b. COC(=O)c1ccc(-c2nn(-c3ccc(C(=O)O)cc3)c3ccccc23)cc1
Hi there, can you help? I need to know whether a or b has lower measured ε (at absorption λmax). State your choice using its label.
a

1. O=C(O)c1ccc(-c2nn(-c3ccc(C(=O)O)cc3)c3ccccc23)cc1
2. NC(=O)c1ccc(-c2nn(-c3ccc(C(=O)O)cc3)c3ccc([N+](=O)[O-])cc23)cc1
Hi there, can you help? I need to know whether 1 or 2 has lower measured ε (at absorption λmax). State your choice using its label.
2
(2: 17252 M⁻¹ cm⁻¹, 1: 29152 M⁻¹ cm⁻¹)

* * *

# assay_text: Steady-state fluorescence spectroscopy (excitation and emission spectra)
# Assay type: physicochemical
# cond: acetonitrile/2% DMSO
The following compounds are listed with their measured Excitation range in parenthesis values.

Solved entries:
INSERT INTO results (compound, parameter_measured, result_value) VALUES
  ('O=C(O)c1ccc(-c2nn(-c3ccc(C(=O)O)cc3)c3ccc([N+](=O)[O-])cc23)cc1', 'Excitation range in parenthesis', '320-360 nm'),
  ('O=C(O)c1ccc(-c2nn(-c3ccc(C(=O)O)cc3)c3ccccc23)cc1', 'Excitation range in parenthesis', '300-360 nm'),
  ('COC(=O)c1ccc(-c2nn(-c3ccc(C(=O)O)cc3)c3ccccc23)cc1', 'Excitation range in parenthesis', '300-360 nm'),
  ('C=CCOC(=O)c1ccc(-c2nn(-c3ccc(C(=O)O)cc3)c3ccccc23)cc1', 'Excitation range in parenthesis', '310-360 nm'),
  ('C=CCOC(=O)c1ccc(-c2nn(-c3ccc(C(=O)N[C@@H](CCCCNC(=O)CCCCC4SCC5NC(=O)NC54)C(=O)O)cc3)c3ccccc23)cc1 (stereo partly drawn)', 'Excitation range in parenthesis', '310-360 nm');

Give Excitation range in parenthesis for the following compound: NC(=O)c1ccc(-n2nc(-c3ccc(C(=O)NCCCNC(=O)CCCCC4SCC5NC(=O)NC54)cc3)c3ccccc32)cc1 (stereo not drawn)
310-360 nm

Give Excitation range in parenthesis for the following compound: COc1ccc(-c2nn(-c3ccc(C(=O)O)cc3)c3cc(OC)ccc23)cc1
300-350 nm

Give Excitation range in parenthesis for the following compound: Cc1ccc2c(-c3ccc([N+](=O)[O-])cc3)nn(-c3ccc(C(=O)O)cc3)c2c1
340-420 nm

Give Excitation range in parenthesis for the following compound: O=C(O)c1ccc(-n2nc(-c3ccc([N+](=O)[O-])cc3)c3ccccc32)cc1
320-400 nm

* * *

# assay_text: Steady-state fluorescence spectroscopy (excitation and emission spectra)
# Format: physicochemical
# cond: acetonitrile/2% DMSO
parameter_measured: Excitation λmax (nm)

INSERT INTO assay_data (compound, parameter_measured, result_value) VALUES
  ('O=C(O)c1ccc(-n2nc(-c3ccc(Cl)cc3)c3ccc(Cl)cc32)cc1', 'Excitation λmax', 328),
  ('Cc1ccc2c(-c3ccc([N+](=O)[O-])cc3)nn(-c3ccc(C(=O)O)cc3)c2c1', 'Excitation λmax', 370),
  ('COC(=O)c1ccc(-c2nn(-c3ccc(C(=O)O)cc3)c3ccccc23)cc1', 'Excitation λmax', 336),
  ('O=C(O)c1ccc(-c2nn(-c3ccc(C(=O)O)cc3)c3ccccc23)cc1', 'Excitation λmax', 335),
  ('C=CCOC(=O)c1ccc(-c2nn(-c3ccc(C(=O)O)cc3)c3ccccc23)cc1', 'Excitation λmax', 337),
  ('C=CCOC(=O)c1ccc(-c2nn(-c3ccc(C(=O)N[C@@H](CCCCNC(=O)CCCCC4SCC5NC(=O)NC54)C(=O)O)cc3)c3ccccc23)cc1 (some centres unmarked)', 'Excitation λmax', 336),
  ('O=C(O)c1ccc(-n2nc(-c3ccc([N+](=O)[O-])cc3)c3ccccc32)cc1', 'Excitation λmax', 368),
  ('COc1ccc(-c2nn(-c3ccc(C(=O)O)cc3)c3cc(OC)ccc23)cc1', 'Excitation λmax', 330),
  ('O=C(O)c1ccc(-c2nn(-c3ccc([N+](=O)[O-])cc3)c3ccccc23)cc1', 'Excitation λmax', 374),
  ('O=C(O)c1ccc(-n2nc(-c3ccccc3)c3ccccc32)cc1', 'Excitation λmax', 328),
  ('NC(=O)c1ccc(-c2nn(-c3ccc(C(=O)O)cc3)c3ccc([N+](=O)[O-])cc23)cc1', 'Excitation λmax', 331),
  ('NC(=O)c1ccc(-n2nc(-c3ccc(C(=O)NCCCNC(=O)CCCCC4SCC5NC(=O)NC54)cc3)c3ccccc32)cc1 (centres unmarked)', 'Excitation λmax', 332),
  ('O=C(O)c1ccc(-c2nn(-c3ccc(C(=O)O)cc3)c3ccc([N+](=O)[O-])cc23)cc1', 'Excitation λmax', 331),
  ('NC(=O)c1ccc(-c2nn(-c3ccc(C(=O)O)cc3)c3ccccc23)cc1', 'Excitation λmax', 334);

* * *

# assay_text: UV-Vis absorption spectroscopy
# Assay type: physicochemical
# cond: acetonitrile/2% DMSO
parameter_measured: ε (at absorption λmax) (M⁻¹ cm⁻¹)

INSERT INTO assay_data (compound, parameter_measured, result_value) VALUES
  ('C=CCOC(=O)c1ccc(-c2nn(-c3ccc(C(=O)O)cc3)c3ccccc23)cc1 [4e]', 'ε (at absorption λmax)', 34134),
  ('Cc1ccc2c(-c3ccc([N+](=O)[O-])cc3)nn(-c3ccc(C(=O)O)cc3)c2c1 [4j]', 'ε (at absorption λmax)', 24967),
  ('O=C(O)c1ccc(-n2nc(-c3ccc([N+](=O)[O-])cc3)c3ccccc32)cc1 [4f]', 'ε (at absorption λmax)', 25482),
  ('NC(=O)c1ccc(-c2nn(-c3ccc(C(=O)O)cc3)c3ccccc23)cc1 [4c]', 'ε (at absorption λmax)', 30665);
